assay_system: Histone deacetylase 1 (Homo sapiens)
Sequence (Q13547 whole entry): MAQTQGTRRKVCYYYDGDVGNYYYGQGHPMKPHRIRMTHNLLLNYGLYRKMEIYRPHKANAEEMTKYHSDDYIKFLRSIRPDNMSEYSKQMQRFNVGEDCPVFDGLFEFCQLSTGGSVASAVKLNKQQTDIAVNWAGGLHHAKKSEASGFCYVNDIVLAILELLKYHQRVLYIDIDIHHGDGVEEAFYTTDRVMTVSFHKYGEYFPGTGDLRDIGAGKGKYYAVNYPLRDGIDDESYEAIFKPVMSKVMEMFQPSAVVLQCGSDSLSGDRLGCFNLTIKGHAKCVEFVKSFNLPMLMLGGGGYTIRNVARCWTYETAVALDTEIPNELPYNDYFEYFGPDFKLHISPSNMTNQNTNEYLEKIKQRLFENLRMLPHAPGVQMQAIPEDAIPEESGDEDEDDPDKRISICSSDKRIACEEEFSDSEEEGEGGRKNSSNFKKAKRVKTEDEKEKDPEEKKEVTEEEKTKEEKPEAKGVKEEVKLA
measurement_protocol: Inhibition of recombinant HDAC1 expressed in HEK293 cells
Please note: IC50 exactly at 1000 nM is 0. Only values below 1000 nM get 1.

Examples with answers:
- CCNC(=O)SCC(=O)c1ccc(OC)cc1: 1
- CCSC(=S)SCC(=O)c1cccc(NC(=O)c2ccccc2)c1: 0
- CCOC(=S)SCC(=O)c1ccc(NC(C)=O)cc1: 1

(Q) Threshold test, IC50 < 1000 nM: `CCSC(=S)SCC(=O)c1ccc(NS(=O)(=O)c2ccccc2)cc1`
(A) 0

(Q) Threshold test, IC50 < 1000 nM: `CCNC(=S)SCC(=O)c1ccc(OC)cc1`
(A) 1

====

assay_system: Histone deacetylase 1 (Homo sapiens)
measurement_protocol: Inhibition of recombinant HDAC1 expressed in HEK293 cells using variable substrate concentration by Lineweaver-Burke plot
parameter_measured: Ki (nM)
Enter your answer as a number in nM; do not include the unit.

(Q) What value of measured Ki is listed for `CCSC(=S)SCC(=O)c1ccc(CC(=O)NCCOc2ccccc2)s1` ?
(A) 460

====

assay_system: Protein deacetylase HDAC6 (Homo sapiens, UniProt Q9UBN7)
Sequence (Q9UBN7 whole entry): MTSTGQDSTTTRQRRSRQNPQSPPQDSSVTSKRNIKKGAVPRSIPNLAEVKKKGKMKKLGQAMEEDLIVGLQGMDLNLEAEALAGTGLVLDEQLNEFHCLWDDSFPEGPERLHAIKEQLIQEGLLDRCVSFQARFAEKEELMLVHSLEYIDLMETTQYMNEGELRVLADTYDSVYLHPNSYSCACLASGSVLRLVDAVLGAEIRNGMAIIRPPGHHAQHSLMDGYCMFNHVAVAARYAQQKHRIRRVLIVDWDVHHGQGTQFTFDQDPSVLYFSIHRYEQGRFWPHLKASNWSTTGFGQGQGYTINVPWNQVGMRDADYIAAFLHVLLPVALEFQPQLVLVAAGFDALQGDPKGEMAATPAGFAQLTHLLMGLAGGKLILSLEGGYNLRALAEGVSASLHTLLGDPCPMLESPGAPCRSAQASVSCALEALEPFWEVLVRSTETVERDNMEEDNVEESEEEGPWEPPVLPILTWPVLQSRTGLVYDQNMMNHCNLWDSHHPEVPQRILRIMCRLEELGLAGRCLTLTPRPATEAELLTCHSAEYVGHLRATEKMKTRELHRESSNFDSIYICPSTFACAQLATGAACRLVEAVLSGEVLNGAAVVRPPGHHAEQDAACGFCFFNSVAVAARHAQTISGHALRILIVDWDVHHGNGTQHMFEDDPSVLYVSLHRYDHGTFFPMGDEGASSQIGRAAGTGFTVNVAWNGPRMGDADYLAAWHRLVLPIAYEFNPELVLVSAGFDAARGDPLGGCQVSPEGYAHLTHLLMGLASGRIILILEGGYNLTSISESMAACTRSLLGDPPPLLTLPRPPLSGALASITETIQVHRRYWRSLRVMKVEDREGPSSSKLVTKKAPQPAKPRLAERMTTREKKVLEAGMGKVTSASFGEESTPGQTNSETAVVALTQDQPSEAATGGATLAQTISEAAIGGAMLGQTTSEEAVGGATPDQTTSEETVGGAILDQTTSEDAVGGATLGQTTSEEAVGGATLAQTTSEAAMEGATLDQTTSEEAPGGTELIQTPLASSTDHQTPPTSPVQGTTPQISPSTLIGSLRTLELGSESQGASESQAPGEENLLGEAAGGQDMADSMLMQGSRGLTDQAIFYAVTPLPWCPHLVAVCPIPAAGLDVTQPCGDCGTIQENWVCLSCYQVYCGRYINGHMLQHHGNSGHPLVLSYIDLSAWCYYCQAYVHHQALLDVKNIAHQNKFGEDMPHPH
measurement_protocol: Inhibition of recombinant HDAC6 expressed in HEK293 cells
Documented log10(IC50) across a set of compounds
In our notation, the value equals log10 of IC50 in nM.

• CCSC(=S)SCC(=O)c1cccc(NC(=O)c2cccnc2)c1 = 1.58
• CCSC(=S)SCC(=O)c1ccc(CNC(=O)c2ccccc2)cc1 = 2.48
• CCSC(=S)SCC(=O)c1ccc(NC(=O)c2cccnc2)cc1 = 2.62
• CCSC(=S)SCC(=O)c1ccc(CNC(C)=O)cc1 = 2.54
• CCSC(=S)SCC(=O)c1ccc(CC(=O)Nc2ccc(OC)cc2)s1 = 2.06

Now take the following compound into account.
(Q) What value of measured log10(IC50) is listed for `CCSC(=S)SCC(=O)c1ccc(-c2ccc(CNc3cnc4ccccc4c3)cn2)s1` ?
(A) 2.64

====

assay_system: Histone deacetylase
measurement_protocol: Inhibition of HDAC in human HeLa cells
Format: cell-based
Please note: IC50 exactly at 2000 nM is not satisfied. Only values below 2000 nM get satisfied.

• CCSC(=S)SCC(=O)c1ccc(C(=O)NCc2ccccc2)s1 = satisfied
• CCSC(=S)SCC(=O)c1ccc(NC(=O)c2cnc3ccccc3c2)cc1 = satisfied
• CCSC(=S)SCC(=O)c1cccc(NS(=O)(=O)c2ccc(Cl)cc2)c1 = not satisfied
• CCSC(=S)SCC(=O)c1cccc(S(=O)(=O)Nc2ccc3c(c2)OCO3)c1 = satisfied
• CCSC(=S)SCC(=O)c1cccc(NC(=O)c2ccccc2)c1 = satisfied
• CCSC(=S)SCC(=O)c1ccc(CNC(C)=O)cc1 = not satisfied

Lab note: next molecule to report on.
(Q) Threshold test, IC50 < 2000 nM: `CCSC(=S)SCC(=O)c1ccc(NS(=O)(=O)c2ccc(Cl)cc2)cc1`
(A) satisfied

====

assay_system: Histone deacetylase
measurement_protocol: Inhibition of nuclear HDAC isolated from human HeLa cells
Type: cell-based
Please note: IC50 exactly at 100 nM is condition not met. Only values below 100 nM get condition met.

Examples with answers:
- CCSC(=S)SCC(=O)c1ccc(-c2ccc(CNc3cnc4ccccc4c3)cn2)s1: condition met
- CCSC(=S)SCC(=O)c1ccc(NS(C)(=O)=O)cc1: condition not met
- CCSC(=S)SCC(=O)c1cccc(CNC(C)=O)c1: condition not met

(Q) Threshold test, IC50 < 100 nM: `CCSC(=S)SCC(=O)c1cccc(C(=O)NCCOc2ccccc2)c1`
(A) condition met

(Q) Threshold test, IC50 < 100 nM: `CCSC(=S)SCC(=O)c1ccc(C(=O)NCCOc2ccccc2)cc1`
(A) condition met

(Q) Threshold test, IC50 < 100 nM: `CCSC(=S)SCC(=O)c1ccc(C)cc1`
(A) condition not met

(Q) Threshold test, IC50 < 100 nM: `CCSC(=S)SCC(=O)c1cccc(S(=O)(=O)Nc2ccc(OC)cc2)c1`
(A) condition met

(Q) Threshold test, IC50 < 100 nM: `CCSC(=S)SCC(=O)c1ccc(C(=O)Nc2ccccc2)cc1`
(A) condition met

(Q) Threshold test, IC50 < 100 nM: `CCSC(=S)SCC(=O)c1ccc(NS(=O)(=O)c2ccccc2)cc1`
(A) condition met

(Q) Threshold test, IC50 < 100 nM: `CCSC(=S)SCC(=O)c1cccc(C(=O)NCc2ccccc2)c1`
(A) condition met

(Q) Threshold test, IC50 < 100 nM: `CCNC(=S)SCC(=O)c1ccc(NC(C)=O)cc1`
(A) condition met

====

assay_system: Histone deacetylase
measurement_protocol: Inhibition of HDAC in human HeLa cells
Assay type: cell-based
Documented IC50 across a set of compounds

Example entries begin here.
* CCSC(=S)SCC(=O)c1ccc(Nc2ncnc3ccccc23)cc1 | 2.99 µM
* CCSC(=S)SCC(=O)c1ccc(NS(=O)(=O)c2ccccc2)cc1 | 0.8 µM
* CCSC(=S)SCC(=O)c1cccc(S(=O)(=O)Nc2ccc(OC)cc2)c1 | 2.77 µM

(Q) What value of measured IC50 is listed for `CCSC(=S)SCC(=O)c1cccc(C(=O)NCc2ccccc2)c1` ?
(A) 0.533 µM

(Q) What value of measured IC50 is listed for `CCSC(=S)SCC(=O)c1ccc(CCNC(C)=O)cc1` ?
(A) 1.48 µM

(Q) What value of measured IC50 is listed for `CCSC(=S)SCC(=O)c1cccc(NS(=O)(=O)c2ccccc2)c1` ?
(A) 2.78 µM

====

assay_system: Histone deacetylase
measurement_protocol: Inhibition of nuclear HDAC isolated from human HeLa cells
Format: cell-based
Documented IC50 across a set of compounds
Enter your answer as a number in µM; do not include the unit.

• CCSC(=S)SCC(=O)c1ccc(NS(=O)(=O)c2ccc(Cl)cc2)cc1 = 0.025

(Q) What value of measured IC50 is listed for `CCSC(=S)SCC(=O)c1ccc(CC(=O)NCc2ccccc2)s1` ?
(A) 0.038

(Q) What value of measured IC50 is listed for `CCSC(=S)SCC(=O)c1ccc(CNC(C)=O)cc1` ?
(A) 0.719

(Q) What value of measured IC50 is listed for `CCSC(=S)SCC(=O)c1ccc(C(=O)Nc2ccccc2)s1` ?
(A) 0.063

====

assay_system: Histone deacetylase 1 (Homo sapiens)
measurement_protocol: Inhibition of recombinant HDAC1 expressed in HEK293 cells
Assay type: cell-based
Please note: IC50 exactly at 2 µM is f. Only values below 2 µM get t.

Examples with answers:
* CCSC(=S)SCC(=O)c1cccc(NC(C)=O)c1 | f
* CCSC(=S)SCC(=O)c1cccc(S(=O)(=O)Nc2ccc3c(c2)OCO3)c1 | t

(Q) Threshold test, IC50 < 2 µM: `CCSC(=S)SCC(=O)c1ccc(OC)cc1`
(A) f

(Q) Threshold test, IC50 < 2 µM: `CCSC(=S)SCC(=O)c1ccc(C(=O)NCCOc2ccccc2)cc1`
(A) t

(Q) Threshold test, IC50 < 2 µM: `CCSC(=S)SCC(=O)c1cccc(S(=O)(=O)N(C)c2ccc(OC)cc2)c1`
(A) f

(Q) Threshold test, IC50 < 2 µM: `CCSC(=S)SCC(=O)c1cccc(NS(=O)(=O)c2ccccc2)c1`
(A) t

(Q) Threshold test, IC50 < 2 µM: `CCSC(=S)SCC(=O)c1ccc(NC(=O)c2cccnc2)cc1`
(A) t

(Q) Threshold test, IC50 < 2 µM: `CCSC(=S)SCC(=O)c1ccc(NS(C)(=O)=O)cc1`
(A) f

(Q) Threshold test, IC50 < 2 µM: `CCSC(=S)SCC(=O)c1ccc(CC(=O)NCc2ccccc2)s1`
(A) t

(Q) Threshold test, IC50 < 2 µM: `COc1ccc(C(=O)CSC(=S)SCCOc2ccccc2)cc1`
(A) f

(Q) Threshold test, IC50 < 2 µM: `CCSC(=S)SCC(=O)c1cccc(NS(=O)(=O)c2ccc(Cl)cc2)c1`
(A) f

(Q) Threshold test, IC50 < 2 µM: `CCSC(=S)SCC(=O)c1ccc(CNC(C)=O)cc1`
(A) f

(Q) Threshold test, IC50 < 2 µM: `CCSC(=S)SCC(=O)c1cccc(CNC(C)=O)c1`
(A) f

(Q) Threshold test, IC50 < 2 µM: `CCSC(=S)SCC(=O)c1ccc(C)cc1`
(A) f

(Q) Threshold test, IC50 < 2 µM: `CCSC(=S)SCC(=O)c1cccc(S(=O)(=O)Nc2ccc(OC)cc2)c1`
(A) t

(Q) Threshold test, IC50 < 2 µM: `CCCC(=S)SCC(=O)c1ccc(NC(C)=O)cc1`
(A) t

(Q) Threshold test, IC50 < 2 µM: `CCSC(=S)SCC(=O)c1ccc(-c2ccc(CNc3cnc4ccccc4c3)cn2)s1`
(A) t

(Q) Threshold test, IC50 < 2 µM: `CCCC(=S)SCC(=O)c1ccc(OC)cc1`
(A) t

(Q) Threshold test, IC50 < 2 µM: `COCCSC(=S)SCC(=O)c1ccc(OC)cc1`
(A) f

(Q) Threshold test, IC50 < 2 µM: `CCSC(=S)SCC(=O)c1ccc(NC(=O)Nc2ccccc2)cc1`
(A) f

(Q) Threshold test, IC50 < 2 µM: `CCSC(=S)SCC(=O)c1ccc(C(=O)NCc2ccccc2)s1`
(A) t

(Q) Threshold test, IC50 < 2 µM: `CCSC(=S)SCC(=O)c1cccc(S(=O)(=O)Nc2cccc(C(N)=O)c2)c1`
(A) t

(Q) Threshold test, IC50 < 2 µM: `CCOC(=O)SCC(=O)c1ccc(OC)cc1`
(A) f
